biological target: MAGI 3 PDZ2 (Homo sapiens, UniProt Q5TCQ9); assay: Competition ELISA, peptide blocking PDZ domain binding to immobilized peptide; set-up: made in house; host or cells: E. coli; settings: MAGI 3 PDZ2; concentration of peptide that blocked 50% of PDZ domain binding to immobilized peptide in an ELISA; read-out: IC50 (μM) PDZ2
Sequence (Q5TCQ9 559-682): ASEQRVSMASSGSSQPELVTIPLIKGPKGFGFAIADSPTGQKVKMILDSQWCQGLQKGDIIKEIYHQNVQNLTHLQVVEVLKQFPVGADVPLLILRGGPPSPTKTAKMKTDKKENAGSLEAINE
Where no end group is shown, it is not given here.
measured-metric: IC50 (µM)
The figure you give is taken to be in µM; do not add the unit.

substance: GCGCSWV
IC50 (µM): 2

substance: HTQITKV [HTQITKV, reference compound]
IC50 (µM): 200

Ask: For the substance HTQITWV [HTQITWV] , give its reported IC50.
Result: 0.3
